- STUDY_SYSTEM: DNAJC3 (Homo sapiens, UniProt Q13217)
- Sequence (Q13217 32-504): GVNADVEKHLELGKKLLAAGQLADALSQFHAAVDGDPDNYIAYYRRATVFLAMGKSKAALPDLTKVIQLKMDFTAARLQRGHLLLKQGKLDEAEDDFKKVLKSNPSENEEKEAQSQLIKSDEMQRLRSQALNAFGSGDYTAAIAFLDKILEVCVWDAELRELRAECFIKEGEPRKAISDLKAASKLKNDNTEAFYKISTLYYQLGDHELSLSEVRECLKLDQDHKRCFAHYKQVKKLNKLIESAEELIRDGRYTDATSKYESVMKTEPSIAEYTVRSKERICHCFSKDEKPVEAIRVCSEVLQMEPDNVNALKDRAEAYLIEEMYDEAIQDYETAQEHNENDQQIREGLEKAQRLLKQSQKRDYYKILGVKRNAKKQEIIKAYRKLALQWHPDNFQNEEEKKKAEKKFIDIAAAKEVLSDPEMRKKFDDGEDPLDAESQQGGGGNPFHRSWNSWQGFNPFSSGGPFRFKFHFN
- ASSAY_TEXT: 2D-TPP in U87 cells
METRIC_NAME: EC50 (µM)
Answer format: numeric, µM implied, no suffix.

Reading of EC50 for CCOC(=O)c1cnn(-c2cccc3c2[nH]c(=O)n3C2CCN(C(=O)Nc3ccc(I)cc3)CC2)c1 [TH6744] with DNAJC3 (Homo sapiens, UniProt Q13217): 3.16

----------
pEC50 listing for selected compounds.
- Test system: SW13 cells
- ASSAY_TEXT: Viability of SW13 cells by nuclei count in the HAZV antiviral assay
- Assay type: cell-based
- EXPERIMENTAL_SETUP: Homo sapiens; HAZV, SW13, MOI 1, 24 h; read-out: Viability (nuclei count) EC50
Note on pEC50: it is the negative log10 of concentration, concentration in mol/L.

RECORD_SMILES: CCOC(=O)c1cnn(-c2cccc3c2[nH]c(=O)n3C2CCN(C(=O)Nc3ccc(I)cc3)CC2)c1
pEC50: 4.43

With those in mind, consider the next compound.
Reading of pEC50 for O=C(Nc1ccc(I)cc1)N1CCC(n2c(=O)[nH]c3cc(Cl)ccc32)CC1 with SW13 cells: 4.32
